protein stability index by entry:
Tested on: Saccharomyces cerevisiae
experimental_details: protein stability index of tFT-peptide fusion (C-terminal peptide) (PSI (0-1 scale)); higher = more stable (slower turnover)
conditions_used: genetic background: cdc34-1; temperature: 37 C
quantity_kind: protein stability index

{"columns": ["sequence_chain", "result"],
 "data": [
  ["VCGYGFAVPCYT", 0.489],
  ["LCIYNFGWWFCV", 0.494],
  ["LYLGCVLFVLFR", 0.197],
  ["LSTPPLLPTPPS", 0.672],
  ["PCPAPRPPSPSA", 0.664]
]}

----------
System: Saccharomyces cerevisiae;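 note: PSI is a weighted mean of sequencing reads over stability bins, variants kept only with over 10 reads, mCherry proximal and sfGFP distal, peptide attached via GGGS linker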
experimental_details: protein stability index of tFT-peptide fusion (C-terminal peptide) (PSI (0-1 scale)); higher = more stable (slower turnover)
conditions_used: genetic background: wild type; temperature: 30 C
protein stability index by entry:

{"columns": ["sequence_chain", "tgt", "protein stability index"],
 "data": [
  ["VTVWVFVFLRGL", "Saccharomyces cerevisiae", 0.302],
  ["FCSFSWFLFLRS", "Saccharomyces cerevisiae", 0.337],
  ["REAFVVLAVFFH", "Saccharomyces cerevisiae", 0.199],
  ["WVRLGRSWTTVG", "Saccharomyces cerevisiae", 0.283],
  ["SFLVRFVYFFAL", "Saccharomyces cerevisiae", 0.232],
  ["SSVLWVMFVFFY", "Saccharomyces cerevisiae", 0.253],
  ["PFLCLPFLLVSR", "Saccharomyces cerevisiae", 0.363],
  ["FFFVLVSGWWGV", "Saccharomyces cerevisiae", 0.221]
]}
